# Experimental target: Transcription factor Sp1 (Homo sapiens) (UniProt P08047)
# Sequence (P08047 whole entry, looked up): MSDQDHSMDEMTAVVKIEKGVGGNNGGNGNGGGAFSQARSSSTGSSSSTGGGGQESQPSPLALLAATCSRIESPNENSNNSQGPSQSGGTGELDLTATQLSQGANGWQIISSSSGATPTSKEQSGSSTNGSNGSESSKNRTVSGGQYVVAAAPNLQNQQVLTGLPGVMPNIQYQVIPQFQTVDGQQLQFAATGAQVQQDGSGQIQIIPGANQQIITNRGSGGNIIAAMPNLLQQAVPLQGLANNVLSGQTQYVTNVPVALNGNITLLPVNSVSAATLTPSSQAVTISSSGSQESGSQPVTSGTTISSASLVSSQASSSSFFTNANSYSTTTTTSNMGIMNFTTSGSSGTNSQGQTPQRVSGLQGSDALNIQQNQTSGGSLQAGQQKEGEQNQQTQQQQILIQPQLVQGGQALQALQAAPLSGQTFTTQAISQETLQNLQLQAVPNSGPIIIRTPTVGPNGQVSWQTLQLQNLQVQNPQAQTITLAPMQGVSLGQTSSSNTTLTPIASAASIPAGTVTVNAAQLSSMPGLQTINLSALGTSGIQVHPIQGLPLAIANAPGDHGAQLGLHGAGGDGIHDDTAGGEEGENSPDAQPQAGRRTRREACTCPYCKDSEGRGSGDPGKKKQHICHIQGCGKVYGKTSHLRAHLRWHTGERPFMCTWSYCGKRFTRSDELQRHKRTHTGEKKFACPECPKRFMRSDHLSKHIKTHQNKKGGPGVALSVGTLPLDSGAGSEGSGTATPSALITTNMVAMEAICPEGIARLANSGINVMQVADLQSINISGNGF
# Assay details: ATG_Sp1_CIS: Attagene CIS-FACTORIAL HepG2 Assay for human Specificity Protein 1 (Sp1) (AID 2282961)
# Experimental conditions: HepG2 Sp1 cis-reporter transcription, actives raise or lower the signal
The source made the active and inactive calls. Rule for the calls: active = hit-call score of the fitted dose curve at least 0.9, where 1 is the maximum; inactive = score below 0.9.
Classes used: True (active), False (inactive)

{"Molecule": "CCCCCCCCn1sc(Cl)c(Cl)c1=O", "Label value": "False"}
{"Molecule": "CCc1cc(Cc2cc(CC)c(N)c(CC)c2)cc(CC)c1N", "Label value": "False"}
{"Molecule": "O=C(Cl)C(F)(F)C(F)(F)C(F)(F)C(F)(F)C(F)(F)C(F)(F)F", "Label value": "False"}
{"Molecule": "OCCCCC(F)(F)C(F)(F)C(F)(F)C(F)(F)F", "Label value": "False"}
{"Molecule": "OCC(F)(F)C(F)(F)C(F)(F)CO", "Label value": "False"}
{"Molecule": "CCOCN(C(=O)CS(=O)(=O)O)c1c(C)cccc1CC", "Label value": "False"}
{"Molecule": "OCC(F)(F)C(F)(F)C(F)(F)C(F)(F)C(F)(F)C(F)(F)CO", "Label value": "False"}
{"Molecule": "C=CC(=O)OCC(F)(F)C(F)(F)C(F)(F)COC(=O)C=C", "Label value": "True"}
{"Molecule": "Oc1ccc(C2(c3ccc(O)c(C4CCCCC4)c3)CCCCC2)cc1C1CCCCC1", "Label value": "False"}
{"Molecule": "Cc1ccc2c(c1)OCC(=O)CO2", "Label value": "False"}
{"Molecule": "O=C(O)CCC(F)(F)C(F)(F)C(F)(F)F", "Label value": "False"}
{"Molecule": "CCc1cccc(C)c1N(C(=O)C(=O)O)C(C)COC (configuration not stated)", "Label value": "False"}
